Test: protease stability score; higher = more stable; yeast display proteolysis, trypsin and chymotrypsin;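 further: relative to predicted unfolded state with 0 unfolded-like and 1 meaning tenfold more protease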
measured.metric: protease stability score
Form rule: numeric answer, no unit written next to it.

## Task Recorded protease stability score for DEEREELHRHIKILNKAWTTGDERLLYELMDPHAKINIDGVDFIGREEATEEYHHRWRHLGVDHFEVRFTEIHDIDGRLHMQTKLNLIVNGQREERHTRVHVRKINGRWLVHNLEIR , please?
## Result 0.125

## Task Which protease stability score is listed for TEEQTHLIRLIEQFVRDEITGNWKSVLKLLDPEVKVILKINGREIHLHGREEITRWVHEWVRHIRVFIEIHHSRAFDGVVEMDTRIIIDIDGVHLSQETRINIYVVDGVLKSMEIHVK ?
## Result 1.65

## Task Give its protease stability score value. Item: DEDDELEDKFEEILRYSLHTGDWEEWRKRVDPHVKLIINGREIIGMERAAKFFIDLERKLGVDVKHHEIRHEDKQGDKLHLETRVELRQGDKVIILHMHLHLEKINGQWIIREVRFD
## Result 1.47

## Task Query: protease stability score; subject: SEEEHRVKELSELMLHWFKTGDEETMDHLMDPDARFELQVGDKEVHSHGWESVHKVLRRTLFWLGADHYNDKDFKHQGDKSKIDMTVHVGDKTVEVTLHLKIVDGRLKFLEIRVK
## Result 1.16

## Task Tell me the measured protease stability score of SDEEEYTRKAIERWIKDFITGNEDLIRKFADPNTRMEWNGKEHHGMELMVKVLKREIHEIRLQKFDVHHVEIYNGRAIVHLKLHGTIDGREETLDVIIFSEKINGQWRVEQLSIR , please.
## Result 1.39

## Task Endpoint output: protease stability score of HEEEEEARDLLKKLLEDFETGNEESLHEYADPNTRTIWDGVEFHGREWMLEIIKQIRVHSVHIHDVRLIDGVLIVKGRMDGDINGQRHTLEVNIFFLKINGRWFFHHMEFE . Value?
## Result 2.51

Continuing:
## Task Which protease stability score is listed for SEEEEESRHAIEMTLKTLITGDEHMIQDLADPRAQTHYGDKEYHGREELFRLMHEFILKIKNLRIELHDHHIQGDKIILDVRWRFDGKSFHVTIESRKINGRWLHHIFIVK ?
## Result 0.582

## Task Which protease stability score is listed for SEDEEMTKKMVEELNHNLLTGDEERLKKQADPNAKVHQGEYNLVGMDQFVRLIKEWRIHHVDMRDIRIFDGVAFIDFEEDIEIDGVRIQTRTHIIILKVNGRWRFKQWEMR ?
## Result 0.862
